tested on: Torpedo; experiment: Effect on Torpedo nicotinic ACh receptor responses at 10 min determined by measuring percentage of original amplitude
READOUT_KIND: Original amplitude (%)
# unit: % | format: bare number

Given CCCCC/C=C\C/C=C\C/C=C\C/C=C\CCCC(=O)O , state its recorded Original amplitude.
139

----------
# maps each entry to its Original amplitude
system: Torpedo; experiment: Effect on Torpedo nicotinic ACh receptor responses at 10 min determined by measuring percentage of original amplitude
# unit: % | format: bare number

Look over these answered cases.
{"columns": ["MOLECULE", "READOUT_KIND", "DISPLAY_UNIT", "VALUE"],
 "data": [
  ["CCCCCCCC/C=C\\CCCCCCCC(=O)O", "Original amplitude", "%", 139],
  ["CCCCCC1CC1CC1CC1CC1CC1CC1CC1CCCC(=O)O (configuration not stated)", "Original amplitude", "%", 78],
  ["CCCCCCCCC1CC1CCCCCCCC(=O)O (configuration not stated)", "Original amplitude", "%", 124],
  ["CCC1CC1CC1CC1CC1CC1CCCCCCCC(=O)O (configuration not stated)", "Original amplitude", "%", 69],
  ["CC/C=C\\C/C=C\\C/C=C\\CCCCCCCC(=O)O", "Original amplitude", "%", 272],
  ["CCCCC/C=C\\C/C=C\\CCCCCCCC(=O)O", "Original amplitude", "%", 175]
]}

Given CCCCCC1CC1CC1CC1CCCCCCCC(=O)O (configuration not stated) , state its recorded Original amplitude.
156

The origin of these recorded values is ChEMBL document CHEMBL1136640.
